Would you kindly list IC50 for each of these compounds?
TGT: Ubiquitin carboxyl-terminal hydrolase 30 (Homo sapiens, UniProt Q70CQ3)
Sequence (Q70CQ3 whole entry): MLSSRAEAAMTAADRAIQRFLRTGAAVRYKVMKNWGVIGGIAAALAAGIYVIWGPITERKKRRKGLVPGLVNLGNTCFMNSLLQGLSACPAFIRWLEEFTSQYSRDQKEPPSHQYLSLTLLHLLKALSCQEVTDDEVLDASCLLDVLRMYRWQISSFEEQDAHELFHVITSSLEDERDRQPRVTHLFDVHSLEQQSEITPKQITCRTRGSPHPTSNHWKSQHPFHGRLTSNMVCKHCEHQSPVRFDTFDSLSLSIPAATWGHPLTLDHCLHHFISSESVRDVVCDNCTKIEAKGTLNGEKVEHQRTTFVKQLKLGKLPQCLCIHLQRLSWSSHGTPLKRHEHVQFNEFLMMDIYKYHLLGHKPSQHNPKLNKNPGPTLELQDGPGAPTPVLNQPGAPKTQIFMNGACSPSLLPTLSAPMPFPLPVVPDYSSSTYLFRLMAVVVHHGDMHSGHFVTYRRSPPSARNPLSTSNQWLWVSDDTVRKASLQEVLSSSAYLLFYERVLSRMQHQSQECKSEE
Give bare numbers, in nM.

[
  {
    "SMILES_TEXT": "COC[C@@H]1C[C@@H](NC(=O)c2ncc(-c3cc(C#N)ccc3OC3CC3)o2)CN1C#N",
    "IC50 (nM)": 3
  },
  {
    "SMILES_TEXT": "C[C@@H]1C[C@@H](NC(=O)c2ncc(-c3cc(C#N)ccc3OC3CC3)o2)CN1C#N",
    "IC50 (nM)": 3
  }
]

Read the next record carefully.
Asked: System Ubiquitin carboxyl-terminal hydrolase 30 (Homo sapiens, UniProt Q70CQ3). Read-out IC50. Item N#Cc1ccc(OC2CC2)c(-c2cnc(C(=O)N[C@@H]3C[C@@H](CF)N(C#N)C3)o2)c1 . Report value.
Given back: 1
